Where these numbers come from: paper PMC7764606

# target-or-test-system: recombinant AKR1C3 (Homo sapiens, UniProt P42330)
# Construct: made in house; host or cells: Escherichia coli
# Sequence (P42330 whole entry): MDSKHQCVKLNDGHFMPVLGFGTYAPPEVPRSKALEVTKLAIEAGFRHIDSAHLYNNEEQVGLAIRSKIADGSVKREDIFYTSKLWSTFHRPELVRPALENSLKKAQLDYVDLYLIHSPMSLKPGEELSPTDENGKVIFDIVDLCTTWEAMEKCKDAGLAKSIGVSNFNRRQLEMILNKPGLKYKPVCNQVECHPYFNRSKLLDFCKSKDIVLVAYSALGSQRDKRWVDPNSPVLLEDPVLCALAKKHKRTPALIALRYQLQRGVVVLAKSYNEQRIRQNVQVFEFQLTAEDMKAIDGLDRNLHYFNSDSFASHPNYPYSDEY
# experiment-notes: Reduction of Dau by recombinant AKR1C3 (UHPLC detection of Dau-ol)
# Format: biochemical
# measurement-conditions: AKR1C3 0.005 mg/mL (0.135 μM); read-out: Ki^app (Morrison equation for tight-binding inhibitors)
observation-type: Ki (nM)

[a] CC#CC(=O)N1CCC[C@H]1c1nc(-c2ccc(C(=O)Nc3ccccn3)cc2)c2c(N)nccn12 [Acalabrutinib, acalabrutinib]
[b] C=CC(=O)N1CCC[C@@H](n2nc(-c3ccc(Oc4ccccc4)cc3)c3c(N)ncnc32)C1 [Ibrutinib, ibrutinib]
Prompt line: I'm curious whether a or b has the smaller Ki number. Which is it? Select an item and report its label.
Response line: b
(b: 312 nM, a: 451 nM)

----------
# target-or-test-system: recombinant AKR1C3 (Homo sapiens, UniProt P42330)
# Construct: made in house; host or cells: Escherichia coli
# experiment-notes: Reduction of Dau by recombinant AKR1C3 (UHPLC detection of Dau-ol)
# Format: biochemical
# measurement-conditions: AKR1C3 0.030 mg/mL (0.811 μM); read-out: Ki^app (Morrison equation for tight-binding inhibitors)
observation-type: Ki (nM)

[I] C=CC(=O)N1CCC[C@@H](n2nc(-c3ccc(Oc4ccccc4)cc3)c3c(N)ncnc32)C1
[II] CC#CC(=O)N1CCC[C@H]1c1nc(-c2ccc(C(=O)Nc3ccccn3)cc2)c2c(N)nccn12
Prompt line: I'm curious whether I or II has the smaller Ki number. Which is it? Select an item and report its label.
Response line: I
(I: 354 nM, II: 566 nM)
